The measurements presented in this section are drawn from the supplement of paper PMC7156485.

Tested on: HCC1569;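 note: TDF is a line of transformed human dermal fibroblasts of mesenchymal origin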
EXPERIMENT DESCRIPTION: H1.0 immunofluorescence intensity relative to DMSO (% of DMSO); higher = stronger H1.0 induction, active = 140 or more
TEST CONTEXT: concentration: 10 µM; 24 h
METRIC NAME: H1.0 immunofluorescence intensity
Reply with just the number.

MOLECULE	H1.0 immunofluorescence intensity
CC(=O)C1(O)CCC2C3CCC4=CC(=O)CCC4(C)C3CCC21C (stereo not given) [17- Hydroxyprogesterone]	104

Then this molecule:
Inquiry: Give the reported value of H1.0 immunofluorescence intensity for this record: CC12C=CC(=O)C=C1CCC1C2C(=O)CC2(C)C1CCC2(O)C(=O)CO (stereo not given) [Prednisone]
Reply text: 122
